molecular target: HEK cells stably transfected with tetracycline inducible hNR1 and hNR2A (Homo sapiens, UniProt Q05586+Q12879); construct: expressed in transfected cells; host or cells: HEK cells, stably transfected, tetracycline/doxycycline inducible; experiment: Assay 1: Cell-Based Assay, cytosolic calcium response to positive allosteric modulators (with 30 μM glycine and 300 nM L-glutamate, EC30); settings: Table 3; cytosolic calcium response, with 30 μM glycine and 300 nM L-glutamate (EC30); — = no plateau was reached
Sequence (Q12879 23-1464, other chains not shown): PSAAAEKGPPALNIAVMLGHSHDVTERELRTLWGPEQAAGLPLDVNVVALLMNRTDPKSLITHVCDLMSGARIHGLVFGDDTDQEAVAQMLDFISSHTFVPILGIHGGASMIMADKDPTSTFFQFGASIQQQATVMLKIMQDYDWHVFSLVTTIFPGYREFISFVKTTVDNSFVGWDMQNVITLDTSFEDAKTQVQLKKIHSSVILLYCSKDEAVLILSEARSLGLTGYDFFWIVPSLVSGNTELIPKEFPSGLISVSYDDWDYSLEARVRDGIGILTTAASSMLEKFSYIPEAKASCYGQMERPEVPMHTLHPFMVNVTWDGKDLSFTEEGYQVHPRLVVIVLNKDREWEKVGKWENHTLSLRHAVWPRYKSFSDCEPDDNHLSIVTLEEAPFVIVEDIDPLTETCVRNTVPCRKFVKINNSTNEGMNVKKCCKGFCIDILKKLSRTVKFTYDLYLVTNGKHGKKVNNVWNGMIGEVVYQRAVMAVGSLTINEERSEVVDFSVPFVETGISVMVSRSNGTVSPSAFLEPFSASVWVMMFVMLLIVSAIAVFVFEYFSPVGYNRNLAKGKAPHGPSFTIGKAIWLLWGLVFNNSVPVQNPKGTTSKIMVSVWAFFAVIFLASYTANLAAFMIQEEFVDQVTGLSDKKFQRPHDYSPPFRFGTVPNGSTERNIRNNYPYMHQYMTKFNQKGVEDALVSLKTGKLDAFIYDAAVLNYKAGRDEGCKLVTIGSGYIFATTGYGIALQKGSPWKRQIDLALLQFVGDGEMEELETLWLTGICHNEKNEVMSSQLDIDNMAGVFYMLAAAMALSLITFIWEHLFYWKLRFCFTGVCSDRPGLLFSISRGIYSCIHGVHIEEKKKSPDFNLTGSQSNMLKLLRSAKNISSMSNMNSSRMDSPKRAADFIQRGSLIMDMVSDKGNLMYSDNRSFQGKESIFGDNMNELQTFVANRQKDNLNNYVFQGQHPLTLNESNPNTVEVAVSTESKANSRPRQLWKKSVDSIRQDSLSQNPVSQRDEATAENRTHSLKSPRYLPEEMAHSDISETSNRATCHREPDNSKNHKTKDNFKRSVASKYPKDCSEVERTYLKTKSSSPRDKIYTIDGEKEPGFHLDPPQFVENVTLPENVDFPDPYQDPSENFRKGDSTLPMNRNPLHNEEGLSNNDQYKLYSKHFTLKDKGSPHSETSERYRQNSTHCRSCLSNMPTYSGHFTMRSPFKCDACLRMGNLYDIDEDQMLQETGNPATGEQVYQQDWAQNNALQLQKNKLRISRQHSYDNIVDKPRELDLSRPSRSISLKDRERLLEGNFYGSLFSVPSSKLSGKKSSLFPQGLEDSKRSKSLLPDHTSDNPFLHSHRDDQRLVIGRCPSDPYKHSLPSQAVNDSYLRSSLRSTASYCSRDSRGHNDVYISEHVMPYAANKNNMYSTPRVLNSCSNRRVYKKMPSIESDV
pEC50: −log10 of the molar value.
readout: pEC50

(Q) GET /values?readout=pEC50&item= Cc1sc2nc(Cn3nc(C(F)(F)F)cc3Cl)cc(=O)n2c1CS(C)(=O)=O
(A) 4.75

[a] CCNC(=O)c1c(C)sc2nc(CN(C)c3ccc(F)cn3)cc(=O)n12
[b] CNC(=O)Cc1c(C)sc2nc(Cn3nc(Cl)cc3C(F)(F)F)cc(=O)n12
[c] O=c1cc(Cn2nc(C(F)(F)F)cc2Cl)nc2sc(C(F)(F)F)c([C@@H]3C[C@H]3CO)n12 (single isomer, unassigned)
(Q) Sort the 3 compounds by pEC50; largest first, smallest last. Write out the labels following the order that was asked for.
(A) c, b, a
(c: 7.08, b: 5.43, a: 4.92)

----------
target: HEK cells stably transfected with tetracycline inducible hNR1 and hNR2A (Homo sapiens, UniProt Q05586+Q12879); construct: expressed in transfected cells; host or cells: HEK cells, stably transfected, tetracycline/doxycycline inducible; assay: Assay 1: Cell-Based Assay, cytosolic calcium response to positive allosteric modulators (with 30 μM glycine and 300 nM L-glutamate, EC30); details: Table 2; cytosolic calcium response, with 30 μM glycine and 300 nM L-glutamate (EC30); — = no plateau was reached
readout: EC50 (µM)

Some entries whose results are on file:
(Q) GET /values?readout=EC50&item= CCN(Cc1cc(=O)n2c(C(O)CO)c(C)sc2n1)c1ccc(F)cc1 (stereo not shown) [Example 12.5]
(A) 0.974

(Q) GET /values?readout=EC50&item= Cc1sc2nc(COc3ccc(F)cc3)cc(=O)n2c1-c1ccn[nH]1 [Example 4.15]
(A) 13.9

[A] Cc1sc2nc(Cn3nc(C(F)F)cc3C)cc(=O)n2c1[C@@H]1C[C@H]1CO (relative stereo) [Example 15.22]
[B] Cc1sc2nc(Cc3cccc(C#N)n3)cc(=O)n2c1C1CC1C#N (stereo not shown) [Example 23.3]
(Q) Which of the two gives a bigger number for EC50: A or B ? Reply with the label of the item you choose.
(A) B

----------
Target: HEK cells stably transfected with tetracycline inducible hNR1 and hNR2A (Homo sapiens, UniProt Q05586+Q12879)
Construct: expressed in transfected cells; host or cells: HEK cells, stably transfected, tetracycline/doxycycline inducible
Test: Assay 1: Cell-Based Assay, cytosolic calcium response to positive allosteric modulators (with 30 μM glycine and 300 nM L-glutamate, EC30)
Conditions: Table 2; cytosolic calcium response, with 30 μM glycine and 300 nM L-glutamate (EC30); — = no plateau was reached
Protocol: Assay 1: Cell-Based Assay HEK cells stably transfected with tetracycline inducible hNR1 and hNR2A were seeded into clear bottom 384 well poly-D-lysine coated plates (2.5×10^4 cells per well) in Minimum Essential Media (MEM; without L-) including 7.5 μg mL^−1 doxycycline and 500 μM (+)-ketamine. The cells were incubated at 37° C. in 5% CO2 for 24 h. […] Compounds were added after a 10 second baseline read and maximum level of relative fluorescence units (RFU) was measured over a 5 min period. […]
readout: EC50 (µM)

Some entries whose results are on file:
(Q) GET /values?readout=EC50&item= Cc1sc2nc(CN(CC(F)(F)F)c3ccc(F)cc3)cc(=O)n2c1-c1cncnc1 [Example 5.3]
(A) 2.2

(Q) GET /values?readout=EC50&item= Cc1sc2nc(COc3ccc(F)cn3)cc(=O)n2c1[C@@H]1C[C@H]1CO (relative stereo) [Example 4.9]
(A) 4.4

(Q) GET /values?readout=EC50&item= Cc1sc2nc(COc3ccc(C#N)cc3)cc(=O)n2c1[C@@H]1C[C@H]1CO (relative stereo) [Example 4.13]
(A) 31.1

(Q) GET /values?readout=EC50&item= Cc1cc(C)n(Cc2cc(=O)n3c([C@@H]4C[C@H]4CO)c(C)sc3n2)n1 (relative stereo) [Example 15.25]
(A) 16.5

(Q) GET /values?readout=EC50&item= CNC(=O)c1c(C(F)(F)F)sc2nc(COc3ccc(F)cc3)cc(=O)n12 [Example 3.2]
(A) 10.1

[P] CCN(Cc1cc(=O)n2c3c(sc2n1)CCCC3)c1ccc(F)cc1 [Example 8.2]
[Q] CCOCc1c(C)sc2nc(CN(CC)c3ccc(F)cc3)cc(=O)n12 [Example 10.16]
(Q) Which of the two gives a bigger number for EC50: P or Q ? Reply with the label of the item you choose.
(A) P

----------
target: HEK cells stably transfected with tetracycline inducible hNR1 and hNR2A (Homo sapiens, UniProt Q05586+Q12879); construct: expressed in transfected cells; host or cells: HEK cells, stably transfected, tetracycline/doxycycline inducible; test: Assay 1: Cell-Based Assay, cytosolic calcium response to positive allosteric modulators (with 30 μM glycine and 300 nM L-glutamate, EC30); conditions: Table 2; responses scaled relative to 100 μM L-glutamate maximal response (100%) and 0 μM L-glutamate (0%)
readout: Max % (%)

(Q) GET /values?readout=Max %&item= CCN(Cc1cc(=O)n2c(C(O)C(F)(F)F)c(C)sc2n1)c1ccc(F)cc1 (stereo not drawn)
(A) 167

(Q) GET /values?readout=Max %&item= Cc1sc2nc(COc3ccc(F)cc3)cc(=O)n2c1C1CC1C (stereo not drawn)
(A) 109

(Q) GET /values?readout=Max %&item= Cc1sc2nc(Cn3nc(C(F)(F)F)cc3C)cc(=O)n2c1-c1cncnc1
(A) 94.8

(Q) GET /values?readout=Max %&item= Cc1sc2nc(Cn3ncc4ccccc43)cc(=O)n2c1[C@@H]1C[C@H]1CO (relative stereo)
(A) 138

(Q) GET /values?readout=Max %&item= CCN(Cc1cc(=O)n2c(-c3cscn3)c(C)sc2n1)c1ccc(F)cc1
(A) 157

[a] Cc1sc2nc(COc3ccc(F)cc3)cc(=O)n2c1C(C)(C)O
[b] CNC(=O)c1c(C)sc2nc(Cc3cc(Cl)ccc3Cl)cc(=O)n12
[c] CCN(Cc1cc(=O)n2c(C#N)csc2n1)c1ccc(F)cc1
(Q) Please produce an ascending ranking of these molecules based on Max %. Write out the labels following the order that was asked for.
(A) a, b, c
(a: 44.6%, b: 100%, c: 166%)

----------
target: HEK cells stably transfected with tetracycline inducible hNR1 and hNR2A (Homo sapiens, UniProt Q05586+Q12879); construct: expressed in transfected cells; host or cells: HEK cells, stably transfected, tetracycline/doxycycline inducible; assay: Assay 1: Cell-Based Assay, cytosolic calcium response to positive allosteric modulators (with 30 μM glycine and 300 nM L-glutamate, EC30); details: Table 2; cytosolic calcium response, with 30 μM glycine and 300 nM L-glutamate (EC30); — = no plateau was reached
readout: EC50 (µM)

Some entries whose results are on file:
(Q) GET /values?readout=EC50&item= Cc1sc2nc(Cc3cc(F)cc(C#N)c3)cc(=O)n2c1[C@@H]1C[C@H]1CO (relative stereo)
(A) 19

(Q) GET /values?readout=EC50&item= CCN(Cc1cc(=O)n2c3c(sc2n1)CCC3C#N)c1ccc(F)cc1 (centres unmarked)
(A) 0.385

(Q) GET /values?readout=EC50&item= CCN(Cc1cc(=O)n2c(CO)c(C)sc2n1)c1cccc(C#N)c1
(A) 22.9

[P] Cc1sc2nc(COc3ccc(F)cc3)cc(=O)n2c1C(C)(C)O
[Q] Cc1sc2nc(COc3ccc(F)cc3)cc(=O)n2c1C(=O)NCC(F)(F)F
(Q) Parameter metric = EC50. Return the lower-valued option from P and Q . Reply with the label of the item you choose.
(A) P
(P: 3 µM, Q: 23 µM)

[I] Cc1sc2nc(Cc3cccc(C(F)(F)F)c3F)cc(=O)n2c1C(C)O (single isomer, unassigned; enantiomer 2) [Example 27.12]
[II] CCN(Cc1cc(=O)n2c(-c3cncnc3)c(C)sc2n1)c1cccc(C#N)c1
[III] CCN(Cc1cc(=O)n2c(COC)c(C)sc2n1)c1cccc(C#N)c1
[IV] CNC(=O)c1c(C)sc2nc(Cc3cccc(C(F)(F)F)c3F)c(F)c(=O)n12
[V] CC#Cc1c(C)sc2nc(CN(CC)c3ccc(F)cc3)cc(=O)n12
(Q) Sort the 5 compounds by EC50; largest first, smallest last. Write out the labels following the order that was asked for.
(A) I, II, III, IV, V

[a] CCN(Cc1cc(=O)n2c(-c3cncnc3)c(C)sc2n1)c1ccc(F)c(F)c1
[b] CCN(Cc1cc(=O)n2c(C#N)c(C)sc2n1)c1ccccn1
[c] CCc1sc2nc(CN(CC)c3ccc(F)cc3)cc(=O)n2c1-c1cncnc1
[d] Cc1sc2nc(COc3ccc(F)cc3F)cc(=O)n2c1[C@@H]1C[C@H]1CO (relative stereo)
[e] CCNC(=O)c1c(C)sc2nc(Cc3cccc(C(F)F)c3F)cc(=O)n12
(Q) Sort the 5 compounds by EC50; largest first, smallest last. Write out the labels following the order that was asked for.
(A) b, d, e, c, a
(b: 21 µM, d: 7.7 µM, e: 5.2 µM, c: 2.5 µM, a: 0.956 µM)

[A] CCN(Cc1cc(=O)n2c(CNCCO)c(C)sc2n1)c1ccc(F)cc1
[B] CCN(Cc1cc(=O)n2c3c(sc2n1)CCOC3)c1ccc(F)cc1
(Q) Which of the two gives a bigger number for EC50: A or B ? Reply with the label of the item you choose.
(A) B
(B: 11.1 µM, A: 7.5 µM)
